Would you mind telling me the reported activity at 0.01 µM of each entry?
- System: PC-3-KQ cells
- run description: 3D spheroid invasion assay and screening of FDA-approved drugs
- Type: cell-based, human
- measurement setup: Homo sapiens, 72 h, 0.01 μM (first column so headed); third screening of 25 hit compounds (Table S2); compared to vehicle control; read-out: Invasion rates (%) of each drug’s multiple concentrations
Please reply with the bare figure in % and do not write the unit itself.

// O=C1CN(/N=C/C=C/c2ccc([N+](=O)[O-])o2)C(=O)N1 : activity at 0.01 µM value = 77.1

// CC1CS(=O)(=O)CCN1/N=C/c1ccc([N+](=O)[O-])o1 (stereo not shown) : activity at 0.01 µM value = 97

// CSCC1CN(/N=C/c2ccc([N+](=O)[O-])o2)C(=O)O1 (stereo not shown) : activity at 0.01 µM value = 59.9

// CC(C)C[C@H](NC(=O)CNC(=O)c1cc(Cl)ccc1Cl)B(O)O : activity at 0.01 µM value = 83.1
